- target.system: UniProt P25103
- Sequence (P25103 whole entry): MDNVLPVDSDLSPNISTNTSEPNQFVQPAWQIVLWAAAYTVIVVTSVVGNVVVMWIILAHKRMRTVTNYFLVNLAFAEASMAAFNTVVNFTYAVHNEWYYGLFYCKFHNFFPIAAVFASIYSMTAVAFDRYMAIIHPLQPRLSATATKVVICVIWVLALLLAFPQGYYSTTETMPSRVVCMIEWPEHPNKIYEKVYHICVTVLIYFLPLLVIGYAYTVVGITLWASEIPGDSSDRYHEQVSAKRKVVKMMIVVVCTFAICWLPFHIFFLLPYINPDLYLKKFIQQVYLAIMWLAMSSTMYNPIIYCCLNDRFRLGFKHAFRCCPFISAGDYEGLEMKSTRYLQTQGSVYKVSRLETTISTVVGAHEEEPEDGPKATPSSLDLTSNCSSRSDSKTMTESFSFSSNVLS
- assay: Binding potency of the test substances to NK1-receptors in vitro ([3H]-Substance P displacement)
- cond: human NK1-receptor in CHO cell membranes, average of at least three measurements, read-out: pKi, binding potency to NK1-receptors (converted)
outcome.measure: Ki (nM)
Report the figure in nM without appending any unit label.

Exam item: Request: Ki, test system UniProt P25103, entry `CN(C[C@@H](CCN1CCC(C(=O)N2CCCC2)(N2CCCC2)CC1)c1ccc(Cl)c(Cl)c1)C(=O)c1cc(C#N)cc2ccccc12`
Marked response: 2

Exam item: Request: Ki, test system UniProt P25103, entry CNc1ccccc1C(=O)N(C)CC(CCN1CCC(C(=O)N(C)C)(N2CCCCC2)CC1)c1ccc(Cl)c(Cl)c1 (stereo not drawn)
Marked response: 79.4

Exam item: Request: Ki, test system UniProt P25103, entry CN(C)C(=O)C1(N2CCCCC2)CCN(CCC(CN(C)C(=O)c2cc(C(F)(F)F)cc(C(F)(F)F)c2)c2ccc(Cl)c(Cl)c2)CC1 (stereo not drawn)
Marked response: 63.1

Exam item: Request: Ki, test system UniProt P25103, entry CN(C)C(=O)C1(N2CCCCC2)CCN(CCC(CN(C)C(=O)c2cccc(Cl)c2)c2ccc(Cl)c(Cl)c2)CC1 (stereo not drawn)
Marked response: 79.4

Exam item: Request: Ki, test system UniProt P25103, entry CN(C)C(=O)C1(N2CCCCC2)CCN(CCC(CN(C)C(=O)Cc2ccc(C(F)(F)F)c(C(F)(F)F)c2)c2ccc(Cl)c(Cl)c2)CC1 (stereo not drawn)
Marked response: 63.1

Exam item: Request: Ki, test system UniProt P25103, entry CN(C)C(=O)C1(N2CCCCC2)CCN(CCC(CN(C)C(=O)c2cc(Cl)ccc2F)c2ccc(Cl)c(Cl)c2)CC1 (stereo not drawn)
Marked response: 79.4

====

Provide the recorded Ki for the entries that follow.
- target.system: human NK2-receptor (Homo sapiens, UniProt P21452)
- Sequence (P21452 1-398): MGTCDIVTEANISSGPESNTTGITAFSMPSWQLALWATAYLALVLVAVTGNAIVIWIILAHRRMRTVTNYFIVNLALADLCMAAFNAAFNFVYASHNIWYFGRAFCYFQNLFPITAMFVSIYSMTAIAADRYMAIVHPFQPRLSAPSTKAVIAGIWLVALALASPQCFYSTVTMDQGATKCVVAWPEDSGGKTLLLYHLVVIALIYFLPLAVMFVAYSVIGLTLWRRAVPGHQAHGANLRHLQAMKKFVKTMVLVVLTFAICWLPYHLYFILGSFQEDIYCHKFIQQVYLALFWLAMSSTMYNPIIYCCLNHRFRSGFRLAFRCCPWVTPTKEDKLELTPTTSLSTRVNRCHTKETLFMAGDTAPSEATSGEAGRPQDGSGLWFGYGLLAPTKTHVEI
- assay: Binding potency of the test substances to NK2-receptors in vitro ([3H]-SR 48968 displacement)
- Set-up: expressed in transfected cells; host or cells: CHO cells (membrane preparation)
- cond: human NK2-receptor in CHO cell membranes, [3H]-SR 48968 (saredutant); average of at least three measurements; read-out: pKi, binding potency to NK2-receptors (converted)
Report the figure in nM without appending any unit label.

Exam item: Request: Ki, test system human NK2-receptor (Homo sapiens, UniProt P21452), entry CNC(=O)C1(N2CCCCC2)CCN(CCC(CN(C)C(=O)c2cc(C#N)cc3ccccc23)c2ccc(Cl)c(Cl)c2)CC1 (stereo not shown) [compound 93]
Marked response: 15.8

Exam item: Request: Ki, test system human NK2-receptor (Homo sapiens, UniProt P21452), entry CN(C)C(=O)C1(N2CCCC2)CCN(CC[C@H](CN(C)C(=O)c2ccccc2)c2ccc(Cl)c(Cl)c2)CC1 [compound 99]
Marked response: 0.631

Exam item: Request: Ki, test system human NK2-receptor (Homo sapiens, UniProt P21452), entry CN(C)C(=O)C1(N2CCCCC2)CCN(CC[C@H](CN(C)C(=O)c2ccc(O)cc2)c2ccc(Cl)c(Cl)c2)CC1 [compound 6]
Marked response: 0.631

Exam item: Request: Ki, test system human NK2-receptor (Homo sapiens, UniProt P21452), entry COc1ccc(C(=O)N(C)CC(CCN2CCC(C(=O)N(C)C)(N3CCCCC3)CC2)c2ccc(Cl)c(Cl)c2)cc1 (stereo not shown) [compound 85]
Marked response: 12.6

Exam item: Request: Ki, test system human NK2-receptor (Homo sapiens, UniProt P21452), entry CN(C)C(=O)C1(N2CCCCC2)CCN(CCC(CN(C)C(=O)c2ccc(C(F)(F)F)cc2)c2ccc(Cl)c(Cl)c2)CC1 (stereo not shown) [compound 86]
Marked response: 12.6

Exam item: Request: Ki, test system human NK2-receptor (Homo sapiens, UniProt P21452), entry CN(C)C(=O)C1(N2CCCCC2)CCN(CCC(CN(C)C(=O)c2cccs2)c2ccc(Cl)c(Cl)c2)CC1 (stereo not shown) [compound 37]
Marked response: 1.58

Exam item: Request: Ki, test system human NK2-receptor (Homo sapiens, UniProt P21452), entry CN(C)C(=O)C1(N2CCCCC2)CCN(CCC(CN(C)C(=O)c2ccccc2C(F)(F)F)c2ccc(Cl)c(Cl)c2)CC1 (stereo not shown) [compound 77]
Marked response: 3.16
